Kindly supply the reported MIC Streptococcus pneumoniae (GC 1894) values for the records listed here.
# Tested on: Streptococcus sp.
# protocol-text: in vitro antibacterial evaluation, MIC by broth dilution
# Type: cell-based
# condition-details: broth dilution, 18 hours at 35° C.; strain GC 1894
Numbered stars: 1 amine (or outer) side, 2 acyl side, 3 side chain; on linkers, the order of the positions; unused ones are H or OH. Square brackets hold non-standard residues; d marks the D form. Peptide text beside a SMILES is read from it. * marks the point of attachment. ξ: configuration not given here. X1 = N=C1NCC(C(O)C(N[*:1])C(=O)[*:2])N1C1OC(CO)C(O)C(O)C1O; ξEnduracididine(βξ-OH,4'ξ) = N=C1NCC(C(O)C(N)C(=O)O)N1; X2 = OCC1OC(OC2C(CO)OC(*)C(O)C2O)C(O)C(O)C1O

These solved cases illustrate the format of a correct answer.
- compound: "CC(c1ccccc1)C1NC(=O)CNC(=O)C(CO)NC(=O)C(C(O)C2CNC(=N)N2C2OC(CO)C(O)C(O)C2O)NC(=O)C(C(O)C2CNC(=N)N2)NC(=O)C(Cc2ccc(OC3OC(CO)C(OC4OC5COC(Cc6ccc(F)cc6)OC5C(O)C4O)C(O)C3O)cc2)NC1=O (stereo not drawn)"
  MIC Streptococcus pneumoniae (GC 1894): "<0.06 µg/mL"
- compound: "N=C1NCC(C(O)C2NC(=O)C(Cc3ccc(OC4OC(CO)C(OC5OC(CO)C(O)C(O)C5O)C(O)C4O)cc3)NC(=O)C(Cc3ccccc3)NC(=O)CNC(=O)C(CO)NC(=O)C(C(O)C3CNC(=N)N3C3OC(CO)C(O)C(O)C3O)NC2=O)N1 (stereo not drawn) [Example 282] (cyclo(GFY(X2)[ξEnduracididine(βξ-OH,4'ξ)][X1]S); configuration not given here)"
  MIC Streptococcus pneumoniae (GC 1894): "128 µg/mL"

// next entry
Quick one: MIC Streptococcus pneumoniae (GC 1894) for CC(c1ccccc1)C1NC(=O)CNC(=O)C(CO)NC(=O)C(C(O)C2CNC(=N)N2C2OC(CO)C(O)C(O)C2O)NC(=O)C(C(O)C2CNC(=N)N2)NC(=O)C(Cc2ccc(OC3OC(CO)C(OC4OC5COC(C6CC=CCC6)OC5C(O)C4O)C(O)C3O)cc2)NC1=O (stereo not drawn) ?
<0.06 µg/mL

###

# System: Enterococcus sp.
# protocol-text: in vitro antibacterial evaluation, MIC by broth dilution
# Format: cell-based
# condition-details: broth dilution, 18 hours at 35° C.
Exercise: state measured MIC Enterococcus faecalis (GC 3059) for each of the molecules provided.
Give bare numbers, in µg/mL.

Required: MIC Enterococcus faecalis (GC 3059), one value per molecule below.
1. CC(c1ccccc1)C1NC(=O)CNC(=O)C(CO)NC(=O)C(C(O)C2CNC(=N)N2C2OC(CO)C(O)C(O)C2O)NC(=O)C(C(O)C2CNC(=N)N2)NC(=O)C(Cc2ccc(OC3OC(CO)C(OC4OC5COC6(CCCCC6)OC5C(O)C4O)C(O)C3O)cc2)NC1=O (centres unmarked)
2. COc1ccc(COC2C(CO)OC(OC3C(CO)OC(Oc4ccc(CC5NC(=O)C(C(C)c6ccccc6)NC(=O)CNC(=O)C(CO)NC(=O)C(C(O)C6CNC(=N)N6C6OC(CO)C(O)C(O)C6O)NC(=O)C(C(O)C6CNC(=N)N6)NC5=O)cc4)C(O)C3O)C(O)C2O)cc1OCc1ccccc1 (centres unmarked) [Example 239a]
3. CCOc1cc(COCC2OC(OC3C(CO)OC(Oc4ccc(CC5NC(=O)C(C(C)c6ccccc6)NC(=O)CNC(=O)C(CO)NC(=O)C(C(O)C6CNC(=N)N6C6OC(CO)C(O)C(O)C6O)NC(=O)C(C(O)C6CNC(=N)N6)NC5=O)cc4)C(O)C3O)C(O)C(O)C2O)ccc1OC (centres unmarked)
4. CC(c1ccccc1)C1NC(=O)CNC(=O)C(CO)NC(=O)C(C(O)C2CNC(=N)N2C2OC(CO)C(O)C(O)C2O)NC(=O)C(C(O)C2CNC(=N)N2)NC(=O)C(Cc2ccc(OC3OC(CO)C(OC4OC5COC(c6ccc(C(=O)c7ccc(I)cc7)cc6)OC5C(O)C4O)C(O)C3O)cc2)NC1=O (centres unmarked)
5. CC(C)=CCN1CC(C(O)C2NC(=O)C(C(O)C3CNC(=N)N3)NC(=O)C(Cc3ccc(OC4OC(CO)C(OC5OC6COC7(OC6C(O)C5O)C5CC6CC(C5)CC7C6)C(O)C4O)cc3)NC(=O)C(C(C)c3ccccc3)NC(=O)CNC(=O)C(CO)NC2=O)N(C2OC(CO)C(O)C(O)C2O)C1=N (centres unmarked)
6. CC(c1ccccc1)C1NC(=O)CNC(=O)C(CO)NC(=O)C(C(O)C2CN(Cc3ccc(C(C)(C)C)cc3)C(=N)N2C2OC(CO)C(O)C(O)C2O)NC(=O)C(C(O)C2CNC(=N)N2)NC(=O)C(Cc2ccc(OC3OC(CO)C(OC4OC5COC6(OC5C(O)C4O)C4CC5CC(C4)CC6C5)C(O)C3O)cc2)NC1=O (centres unmarked)
7. N=C1NCC(C(O)C2NC(=O)C(Cc3ccc(OC4OC(CO)C(OC5OC6COC(Cc7ccccc7)OC6C(O)C5O)C(O)C4O)cc3)NC(=O)C(CC3CCCCC3)NC(=O)CNC(=O)C(CO)NC(=O)C(C(O)C3CNC(=N)N3C3OC(CO)C(O)C(O)C3O)NC2=O)N1 (centres unmarked)

1: 8; 2: 8; 3: 32; 4: 2; 5: 16; 6: 16; 7: 2

Find MIC Enterococcus faecalis (GC 3059) (Enterococcus sp.) for the entry CC(c1ccccc1)C1NC(=O)CNC(=O)C(CO)NC(=O)C(C(O)C2CNC(=N)N2C2OC(CO)C(O)C(O)C2O)NC(=O)C(C(O)C2CNC(=N)N2)NC(=O)C(Cc2ccc(OC3OC(CO)C(OC4OC5COC6(OC5C(O)C4O)C(C)CCCC6C)C(O)C3O)cc2)NC1=O (centres unmarked)
1

###

I'd be grateful if you could share measured MIC Staphylococcus aureus (GC 4541) for these entries.
# Tested on: Staphylococcus sp.
# protocol-text: in vitro antibacterial evaluation, MIC by broth dilution
# Format: cell-based
# condition-details: strain GC 4541; broth dilution, 18 hours at 35° C.
One number for each entry, in µg/mL.

Consider the reported MIC Staphylococcus aureus (GC 4541) for these molecules:
- molecule: "N=C1NCC(C(O)C2NC(=O)C(Cc3ccc(OC4OC(CO)C(OC5OC6COC(CCc7ccccc7)OC6C(O)C5O)C(O)C4O)cc3)NC(=O)C(CC3CCCCC3)NC(=O)CNC(=O)C(CO)NC(=O)C(C(O)C3CNC(=N)N3C3OC(CO)C(O)C(O)C3O)NC2=O)N1 (centres unmarked)"
  MIC Staphylococcus aureus (GC 4541), µg/mL: 0.5
- molecule: "CC(c1ccccc1)C1NC(=O)CNC(=O)C(CO)NC(=O)C(C(O)C2CNC(=N)N2C2OC(CO)C(O)C(O)C2O)NC(=O)C(C(O)C2CNC(=N)N2)NC(=O)C(Cc2ccc(OC3OC(CO)C(OC4OC5COC6(CC7CCC6(C)C7(C)C)OC5C(O)C4O)C(O)C3O)cc2)NC1=O (centres unmarked) [Example 215]"
  MIC Staphylococcus aureus (GC 4541), µg/mL: 0.5
- molecule: "N=C1NCC(C(O)C2NC(=O)C(Cc3ccc(OC4OC(CO)C(OC5OC6COC7(OC6C(O)C5O)C5CC6CC(C5)CC7C6)C(O)C4O)cc3)NC(=O)C(Cc3ccccc3)NC(=O)CNC(=O)C(CO)NC(=O)C(C(O)C3CNC(=N)N3C3OC(CO)C(O)C(O)C3O)NC2=O)N1 (centres unmarked)"
  MIC Staphylococcus aureus (GC 4541), µg/mL: 1
- molecule: "N=C1NCC(C(O)C2NC(=O)C(Cc3ccc(OC4OC(CO)C(OC5OC6COC(c7ccccc7)OC6C(O)C5O)C(O)C4O)cc3)NC(=O)C(CC3CCCCC3)NC(=O)CNC(=O)C(CO)NC(=O)C(C(O)C3CNC(=N)N3C3OC(CO)C(O)C(O)C3O)NC2=O)N1 (centres unmarked)"
  MIC Staphylococcus aureus (GC 4541), µg/mL: 2

Each molecule below has a reported value. Please supply its MIC Staphylococcus aureus (GC 4541).
1. CCCCCCC(=O)Nc1cc(CC2NC(=O)C(C(C)c3ccccc3)NC(=O)CNC(=O)C(CO)NC(=O)C(C(O)C3CNC(=N)N3C3OC(CO)C(O)C(O)C3O)NC(=O)C(C(O)C3CNC(=N)N3)NC2=O)ccc1O (centres unmarked)
2. CC(C1CCCCC1)C1NC(=O)CNC(=O)C(CO)NC(=O)C(C(O)C2CNC(=N)N2C2OC(CO)C(O)C(O)C2O)NC(=O)C(C(O)C2CNC(=N)N2)NC(=O)C(Cc2ccc(OC3OC(CO)C(OC4OC5COC(c6ccccc6)OC5C(O)C4O)C(O)C3O)cc2)NC1=O (centres unmarked)

64
0.5
